- System: CDKL3
- reported.conditions: concentration: 1 μM,replicates: in singlicate; n = 1;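 note: KINOMEscan kinase panel screen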
quantity: %Inh (%)
// note: answer is a bare numeric in %

# example entries with known answers
CCN1CCN(CCCC(=O)Nc2n[nH]c3nc(-c4ccc(O)cc4)c(Br)cc23)CC1 [SB-731579] = 2
CN(c1ccc2c(c1)nc(NCc1ccc(F)cc1)n2C)c1ccnc(Nc2ccc(CS(C)(=O)=O)cc2)n1.Cl [GW813244] = 20
C[C@@H]1CCN(C(=O)N2CCCC2)C[C@@H]1N(C)c1ncnc2[nH]ccc12 = 0

Now for the compound whose %Inh we want.
Record Cc1ccc2c(-c3ccnc(Nc4ccc(C(F)(F)F)cc4)n3)cnn2n1 [GW819776] . Reported %Inh: 77

* * *

- Tested on: FES
- reported.conditions: concentration: 1 μM,replicates: in singlicate; n = 1
quantity: %Inh
Please give the number followed by its unit.

# example entries with known answers
Cc1ccn2nc(-c3ccc(F)cc3)c(-c3ccncc3)c2c1.Cl = 0%
O=C1NCCc2[nH]c(-c3ccncc3)cc21 = 30%
CN1CCN(CCNc2nc3cc(Oc4ccc(NC(=O)Nc5cc(C(F)(F)F)ccc5F)cc4)ccc3[nH]2)CC1.Cl.Cl = 9%
Cn1ccc2ncnc(Oc3ccc(NC(=O)Nc4cnn(C(C)(C)C)c4)c(Cl)c3)c21 = 13%

Now for the compound whose %Inh we want.
Record `COc1cc2nccc(Nc3ccc(Oc4ccccc4)cc3)c2cc1OC.Cl` . Reported %Inh: 0%

* * *

- Test system: CLK4
- reported.conditions: concentration: 1 μM,replicates: in singlicate; n = 1
quantity: %Inh (%)
// note: answer is a bare numeric in %

Log: CLK4, compound `CS(=O)(=O)c1cccc(CNc2nc(Nc3ccc4c(c3)[C@@H]3C[C@@H]4CNC3=O)ncc2C(F)(F)F)c1` , %Inh = 0

Log: CLK4, compound `Cn1ccc2ncnc(Oc3ccc(NC(=O)Nc4cncc(C(F)(F)F)c4)c(Cl)c3)c21` , %Inh = 7

Log: CLK4, compound `CN(c1ccc2c(c1)nc(NCc1ccc(F)cc1)n2C)c1ccnc(Nc2ccc(CS(C)(=O)=O)cc2)n1.Cl` , %Inh = 17

Log: CLK4, compound `C[C@@H]1CCN(C(=O)N2CCCC2)C[C@@H]1N(C)c1ncnc2[nH]ccc12` , %Inh = 24

Log: CLK4, compound `CNC(=O)c1ccccc1Nc1nc(Nc2cccc(CS(C)(=O)=O)c2)ncc1C.O=CO` , %Inh = 98.9

Log: CLK4, compound `O=C(Nc1cccc(Oc2ccc3nccn3n2)c1)Nc1cccc(C(F)(F)F)c1` , %Inh = 0

Log: CLK4, compound `CCn1c(-c2nonc2N)nc2cncc(CNC3CCNCC3)c21.Cl` , %Inh = 56

Log: CLK4, compound `Cn1ccc2ncnc(Oc3ccc(NC(=O)Nc4ccnc(C(F)(F)F)c4)c(Cl)c3)c21` , %Inh = 0

Log: CLK4, compound COc1cc(Nc2nccc(N3CCC(NC(=O)c4cccc(C#N)c4)C3)n2)cc(OC)c1OC (centres unmarked) , %Inh = 0

Log: CLK4, compound `Cc1cccc(-c2nc(Nc3ccncc3)c3sccc3n2)n1` , %Inh = 22

Log: CLK4, compound `Cc1ccc(CC(=O)N2CCc3cc(-c4cn(C)c5ncnc(N)c45)ccc32)cc1` , %Inh = 0
